System: HCT-15 colon
Method Description: NCI-60 one-dose screen, 48 h (100 = growth as untreated, 0 = no growth, -100 = all killed)
Condition Context: 10 µM unless noted
Description: Growth inhibition of the HCT-15 human tumor cell line is measured as a screen for anti-cancer activity. Cells are grown in 96 well plates and exposed to the test compound for 48 hours. Compounds are tested at a single concentration, which is 10^-5 M for most compounds. The reported endpoint is percent growth (GI% or GIPRCNT), where numbers from 0 - 100% represent growth inhibition, and numbers from -100% - 0 represent cell death. For example, a value of 40 represents 60% growth inhibition. […]
About 83,000 compounds went through this panel and 20% of them were active in at least one assay; those are over-represented in the sample as a whole.

>  <Molecule>
CC12OC(CC(O)C1O)n1c3ccccc3c3c4c(c5c6ccccc6n2c5c31)C(=O)N(CCN1CCOCC1)C4=O (stereo not drawn)

>  <System>
HCT-15 colon

>  <growth, %>
9.81

$$$$
>  <Molecule>
O=C1N=c2ccccc2=C1c1sc(=S)n(C2CC(=O)N(c3ccc(Cl)cc3)C2=O)c1O (stereo not drawn)

>  <System>
HCT-15 colon

>  <growth, %>
93.7

$$$$
>  <Molecule>
CC[C@@H]1NC(=O)[C@H]([C@H](O)[C@H](C)C/C=C/c2ccc(CN3C(=O)C(C)=C(C)C3=O)cc2)N(C)C(=O)[C@H](C(C)C)N(C)C(=O)[C@H](CC(C)C)N(C)C(=O)[C@H](CC(C)C)N(C)C(=O)[C@@H](C)NC(=O)[C@H](C)NC(=O)[C@H](CC(C)C)N(C)C(=O)[C@H](C(C)C)NC(=O)[C@H](CC(C)C)N(C)C(=O)CN(C)C1=O

>  <System>
HCT-15 colon

>  <growth, %>
67.8

$$$$
>  <Molecule>
COc1nc(=O)n(C2C=CC(=O)O2)cc1F (stereo not drawn)

>  <System>
HCT-15 colon

>  <growth, %>
58.5

$$$$
>  <Molecule>
CCOC(=O)C(=Cc1ccc(C#N)cc1)C(=O)OCC

>  <System>
HCT-15 colon

>  <growth, %>
-21

$$$$
>  <Molecule>
Nc1nc(Nc2cccnc2)sc1C(=O)c1ccccc1F

>  <System>
HCT-15 colon

>  <growth, %>
27.7

$$$$
>  <Molecule>
CCN1C(=O)/C(=c2\sc3n(c2=O)C2C(NN=3)N(CC)C(=O)N2CC)c2ccccc21 (stereo not drawn)

>  <System>
HCT-15 colon

>  <growth, %>
19.3

$$$$
>  <Molecule>
COc1cc(OC)cc(-c2ccc(-c3ccc(C(=N)N)cn3)s2)c1

>  <System>
HCT-15 colon

>  <growth, %>
41.7

$$$$
>  <Molecule>
COc1ccc(-c2[nH]c3ccccc3c2-c2ccc(OC)cc2)cc1

>  <System>
HCT-15 colon

>  <growth, %>
39.8

$$$$
>  <Molecule>
COC1=CC(c2ccc[nH]2)=N/C1=C\c1[nH]c(C)c(C(=O)Oc2ccccc2)c1C

>  <System>
HCT-15 colon

>  <growth, %>
-35.1

$$$$
>  <Molecule>
COc1ccc2c(O)c(/C=C3\N=Nc4nc(C)ccc43)oc2c1CC1CCNCC1

>  <System>
HCT-15 colon

>  <growth, %>
93.3

$$$$
>  <Molecule>
Cc1cccc(-c2nnc(SCC(=O)Nc3ncc(Cc4ccccc4)s3)n2N2C(=O)CSC2=S)c1

>  <System>
HCT-15 colon

>  <growth, %>
78.5

$$$$
>  <Molecule>
O=C(N=Nc1c(O)[nH]c2ccccc12)Nc1ccc(Br)cc1

>  <System>
HCT-15 colon

>  <growth, %>
77

$$$$
>  <Molecule>
O=C(Nc1ccccc1C(=O)N/N=C(\c1ccccc1)c1ccccn1)c1ccccc1

>  <System>
HCT-15 colon

>  <growth, %>
25.7

$$$$
>  <Molecule>
Cn1c(=O)c2c(nc(Nc3cc(=O)[nH]c(=O)[nH]3)n2Cc2ccccc2)n(C)c1=O

>  <System>
HCT-15 colon

>  <growth, %>
98.3

$$$$
>  <Molecule>
O=C1CCCCN1CCCCC#Cc1cccc(C#Cc2cccnc2)c1

>  <System>
HCT-15 colon

>  <growth, %>
44.7

$$$$
>  <Molecule>
[2H]C([2H])([2H])Oc1cc(F)ccc1/C=C/C(=O)/C=C(/C=C/c1ccc(F)cc1OC([2H])([2H])[2H])OB(F)F

>  <System>
HCT-15 colon

>  <growth, %>
25.3

$$$$
>  <Molecule>
CN(C)CCCn1c2nc(=O)[nH]c(=O)c-2nc2cc(Cl)c(Cl)cc21

>  <System>
HCT-15 colon

>  <growth, %>
87

$$$$

---

Test system: A498 renal
Method Description: NCI-60 one-dose screen, 48 h
Condition Context: 10 µM unless noted
The panel holds about 83,000 compounds, 20% with a hit somewhere; the sample as a whole holds those more often. The source made the active and inactive calls. Rule for the calls: active = growth percent below 10; inactive = the rest.
Outcome codes: y = active, n = inactive

>  <Compound>
CCc1c2c(nc3ccc(OCc4ccc(B5OC(C)(C)C(C)(C)O5)cc4)cc13)-c1cc3c(c(=O)n1C2)COC(=O)[C@]3(O)CC

>  <System>
A498 renal

>  <Category Label>
y

$$$$
>  <Compound>
COc1ccc(-c2ccc(-c3ccc(C(=N)N)cn3)o2)cc1Cl

>  <System>
A498 renal

>  <Category Label>
n

$$$$
>  <Compound>
CCCCCCNC(=O)Oc1ccc(/C(=C(/CC)Cc2ccccc2)c2ccc(OCCCN(C)C)cc2)cc1

>  <System>
A498 renal

>  <Category Label>
n

$$$$
>  <Compound>
O=C(c1ccc(Nc2nccc(NCCCNc3ccnc4cc(Cl)ccc34)n2)cc1)N1CCCCC1

>  <System>
A498 renal

>  <Category Label>
n

$$$$
>  <Compound>
CCOC(=O)CC1CSC(c2cccc(Cl)c2)=N1 (centres undefined)

>  <System>
A498 renal

>  <Category Label>
n

$$$$
>  <Compound>
Cc1ccc(-c2nc(SCC(=O)c3ccc(C#N)cc3)[nH]c(=O)c2C#N)cc1

>  <System>
A498 renal

>  <Category Label>
n

$$$$
>  <Compound>
O=C(NCCCN1CCCCC1)c1ccc(-c2nc3ccc4[nH]ncc4c3c3c2CCCC3)cc1

>  <System>
A498 renal

>  <Category Label>
y

$$$$
>  <Compound>
COc1cc(/C=C(/c2ccccc2)[N+](=O)[O-])c(OC)c2c1OCO2

>  <System>
A498 renal

>  <Category Label>
y

$$$$
>  <Compound>
CN1C(=O)/C(=C/c2ccc(C(=O)Nc3ncc(Cc4ccccc4Cl)s3)cc2)SC1=S

>  <System>
A498 renal

>  <Category Label>
n

$$$$

---

Test system: OVCAR-3 ovarian
Method Description: NCI-60 one-dose screen, 48 h (100 = growth as untreated, 0 = no growth, -100 = all killed)
Condition Context: 10 µM unless noted
Method: Growth inhibition of the OVCAR-3 human tumor cell line is measured as a screen for anti-cancer activity. Cells are grown in 96 well plates and exposed to the test compound for 48 hours. Compounds are tested at a single concentration, which is 10^-5 M for most compounds. The reported endpoint is percent growth (GI% or GIPRCNT), where numbers from 0 - 100% represent growth inhibition, and numbers from -100% - 0 represent cell death. For example, a value of 40 represents 60% growth inhibition. […]
This is part of a sample that, as a whole, favours compounds with a hit. Of some 83,000 tested, about 20% had one in any assay.
Each entry below carries its reported growth.

>  <Molecule>
C=C(C)[C@@H]1CC[C@]2(C)[C@H](CC(=O)N[C@H]3[C@@H]4C[C@](C)(C(=O)OC)CC[C@]4(C)CC[C@]32C)[C@@]1(C)CCC#N

>  <Reading Unit>
%

>  <growth>
79.7

$$$$
>  <Molecule>
Cc1c(CC(=O)OCCO)cc(-c2ccc(Cl)cc2)n1-c1ccccc1

>  <Reading Unit>
%

>  <growth>
108

$$$$
>  <Molecule>
CN1CCCc2cc(/C=C3\SC(=S)N(C(Cc4ccc(O)cc4)C(=O)O)C3=O)ccc21 (centres undefined)

>  <Reading Unit>
%

>  <growth>
95.5

$$$$
>  <Molecule>
COc1nc(=O)n(C2C=CC(=O)O2)cc1F (centres undefined)

>  <Reading Unit>
%

>  <growth>
33.8

$$$$
>  <Molecule>
COc1ccc(/C=C/C(=O)c2cc3c(N)c(C(=O)Nc4ccccc4Cl)sc3nc2C)cc1

>  <Reading Unit>
%

>  <growth>
21.1

$$$$
>  <Molecule>
Cc1ccc(C(=O)N(CCCN)[C@@H](c2nc3cc(Cl)ccc3c(=O)n2Cc2ccccc2)C(C)C)cc1

>  <Reading Unit>
%

>  <growth>
-13.7

$$$$
>  <Molecule>
CC(Sc1ccccc1)C(=O)O (centres undefined)

>  <Reading Unit>
%

>  <growth>
106

$$$$
>  <Molecule>
CCCN1C(=O)/C(=c2\sc3n(c2=O)C2C(NN=3)N(CC)C(=O)N2CC)c2ccccc21 (centres undefined)

>  <Reading Unit>
%

>  <growth>
12.4

$$$$
>  <Molecule>
CCOC(=O)c1cnn(CC(O)CC)c1NC(=O)NCc1ccccc1C(F)(F)F (centres undefined)

>  <Reading Unit>
%

>  <growth>
107

$$$$
